Just for reference, ChEMBL document CHEMBL1201862 is where these values come from.

- Tested on: HT-29
- Method: NCI tumour cell line growth inhibition, 48 h
Activity calls are given as the source filed them. Cut-off read from the data, not from the text of the source: active = GI50 up to about 1.1 µM and inactive = higher. Square brackets hold non-standard residues; d marks the D form. Peptide text beside a SMILES is read from it. Ac5c = NC1(C(=O)O)CCCC1
Response enum: active, inactive

For COC(CN(C(=O)c1ccccc1)C1CCC2(SCCS2)c2[nH]c3ccccc3c21)OC (stereo not given) , which call appears in the assay record?
inactive

For CSC(=N/C=C/c1ccccc1)SC , which call appears in the assay record?
inactive

For Nc1n[n+]2cc(-c3ccccc3)n(CC(=O)c3ccccc3)c2s1 , which call appears in the assay record?
inactive

For Clc1ccc(Cc2nc3cc(Cl)c(Cl)cc3n2CC2CCCN3CCCCC23)cc1 (stereo not given) , which call appears in the assay record?
inactive

For O=C1O[C@H](c2ccc3c(c2)OCO3)[C@H]2CO[C@@H](c3ccc4c(c3)OCO4)[C@@H]12 , which call appears in the assay record?
inactive

For Cc1ccc(-c2n[nH]c(=O)n2N2C(=O)c3ccccc3C2=O)cc1 , which call appears in the assay record?
inactive

For C[C@@H](C(=O)O)c1ccc(-c2ccccc2)c(F)c1 , which call appears in the assay record?
inactive

For CC1C=CN(N(C)C)C2=C1C(=O)c1cnccc1C2=O (stereo not given) , which call appears in the assay record?
active

For CC(C)C1OC2(C)OC(=N)C1(C#N)C(C#N)(C#N)C2C (stereo not given) , which call appears in the assay record?
inactive

For NCC(=O)NC1(C(=O)O)CCCC1 (H-Gly-[Ac5c]-OH) , which call appears in the assay record?
inactive
